# Test system: SNU-5
# MEASUREMENT DESCRIPTION: In vitro activity in SNU-5 cell line (CTG 120h), Example 12
# Type: cell-based
# MEASUREMENT SETUP: Homo sapiens, SNU-5, 120 h, SNU5, CTG 120 h, N1
ASSAY READOUT: IC50 (µM)

SMILES STRING	ASSAY READOUT	TEST VALUE
Cc1c(Nc2nc3ccccc3s2)nnc2c1CCCN2c1ccc(-c2cnn(C[C@]34C[C@]5(C)C[C@](C)(C3)C[C@@](OCCNCCCO)(C5)C4)c2C)c(C(=O)O)n1	IC50	5.51

* * *

# Tested on: H1650 cells
# MEASUREMENT DESCRIPTION: In vitro activity in H1650 cell line (3D, CTG 120h), Example 6
# Format: cell-based
# MEASUREMENT SETUP: Homo sapiens, NCI-H1650, 120 h, H1650 3D, n = 2
pIC50: −log10 of the molar value.

SMILES STRING	pIC50
Cc1c(Nc2nc3ccccc3s2)nnc2c1CCCN2c1ccc(-c2cnn(C[C@]34C[C@]5(C)C[C@](C)(C3)C[C@@](OCCNCCCO)(C5)C4)c2C)c(C(=O)O)n1	8.78
